Measured Cytotoxicity: Relative Cell Viability (% of Negative Control) values are reported for all entries that follow.
- Tested on: normal human dermal fibroblasts (NHDF) cells
- PROTOCOL_NOTES: Fibroblast cytotoxicity (CellTiter-Glo)
- Format: cell-based
- STATED_CONDITIONS: 10 µM
MEASURED_METRIC: Cytotoxicity: Relative Cell Viability (% of Negative Control)

COMPOUND | VALUE_MEASURED
Cc1ccccc1OCCn1cnc2ccccc21 [compound 749608] | 96.0 % of Negative Control
CC1CCN(c2ncnc3sccc23)CC1 [compound 2238992] | 70.0 % of Negative Control
O=C(Cn1c(=O)n(Cc2ccncc2)c(=O)c2ncccc21)Nc1ccc(F)c(Cl)c1 [compound 16951979] | 102.8 % of Negative Control
ClC1(Cl)CC1Cn1cnc2ccccc21 (stereo not drawn) [compound 2936975] | 93.7 % of Negative Control
O=C(NCc1ccco1)c1sc2ccccc2c1Cl [compound 2049334] | 88.3 % of Negative Control
Cc1nc(NC(=O)CCl)sc1C(=O)OCC(C)C [compound 2139195] | 6.3 % of Negative Control
COC(=O)c1c(NC(=O)c2ccc(C(C)(C)C)cc2)sc2c1CCN(C(C)C)C2 [compound 4684724] | 34.9 % of Negative Control
Oc1ccc(C2(c3cccc(Cl)c3)CCCC2)cc1 [compound 767639] | 96.2 % of Negative Control
CC1CNc2ccccc2N(Cc2ccc(Br)cc2)C1=O (stereo not drawn) [compound 20896311] | 94.5 % of Negative Control
Cc1nc(NCc2ccccc2)c2ccsc2n1 [compound 2238994] | 75.7 % of Negative Control
O=C(COc1coc(CN2CCc3ccccc32)cc1=O)OCc1ccccc1 [compound 7178481] | 88.3 % of Negative Control
Cc1ccc2occ(C=O)c(=O)c2c1 [compound 688709] | 91.6 % of Negative Control
Fc1ccc(Nc2ccnc3ccc(Cl)cc23)c(F)c1 [compound 17016619] | 67.9 % of Negative Control
CC(=O)c1ccc(OCCOc2ccc(C#N)cc2)cc1 [compound 1713451] | 106.4 % of Negative Control
Cc1oc2cc(OCCN3CCN(c4ccccc4F)CC3)ccc2c(=O)c1-c1ccccc1 [compound 24280258] | 103.4 % of Negative Control
O=C(c1ccc(OC(F)(F)F)cc1)N(Cc1ccoc1)Cc1cccs1 [compound 71804107] | 94.0 % of Negative Control
Nc1c(-c2ccccc2)sc2nc(-c3ccccc3)cc[n+]12 [compound 4458495] | 52.5 % of Negative Control
CN(Cc1ccccc1)C(=O)COc1ccc(Br)cc1 [compound 4690650] | 66.8 % of Negative Control
C=C(C)Cn1c(Cc2ccc(OC)cc2)nc2ccccc21 [compound 962333] | 73.9 % of Negative Control
Cc1ccc(N2C(=O)CC(Sc3ccccc3C(=O)O)C2=O)c(Br)c1 (stereo not drawn) [compound 2919713] | 94.3 % of Negative Control
CCc1ccccc1NC(=O)c1cc(C)oc1C [compound 8839503] | 103.5 % of Negative Control
O=C1NC(=S)S/C1=C\c1ccc(OC(F)(F)F)cc1 [compound 16433415] | 79.7 % of Negative Control
Cc1ccc2cc(CCC#N)c(Cl)nc2c1 [compound 4736829] | 96.3 % of Negative Control
N#CSC1C=CS(=O)(=O)C1 (stereo not drawn) [compound 99741] | 40.8 % of Negative Control
CCCCSc1nc2ccc(C)cc2[nH]1 [compound 2129690] | 104.3 % of Negative Control
CC1Cc2ccccc2N1C(=O)CCn1c(=O)sc2ccccc21 (stereo not drawn) [compound 3163780] | 59.5 % of Negative Control
Cc1ccc(CN2C(=O)C=CC2=O)cc1 [compound 302279] | 3.1 % of Negative Control
Cc1cc(C(=O)NCCc2nc(C3CC3)cc(C(F)(F)F)n2)c(C)o1 [compound 71797038] | 94.6 % of Negative Control
COc1ccc(CCN2C(=O)C=CC2=O)cc1OC [compound 282938] | 24.9 % of Negative Control
Cc1cc(C(=O)NCCn2nc(C(F)(F)F)c3c2CCCC3)c(C)o1 [compound 72718563] | 92.0 % of Negative Control
Clc1ccc(OCCSCc2nc3ccccc3[nH]2)cc1 [compound 1589789] | 74.0 % of Negative Control
COc1ccc(/C=C/c2nc3ccccc3[nH]2)cc1 [compound 5769808] | 14.4 % of Negative Control
Cc1cc(C)c(S(=O)(=O)Nc2nc(C(F)(F)F)cs2)c(C)c1 [compound 4413055] | 49.5 % of Negative Control
O=C(c1ccc2cc[nH]c2c1)N1CCCCC(c2ccc(Cl)cc2)C1 (stereo not drawn) [compound 76150266] | 92.9 % of Negative Control
c1nc(N2CCCCCC2)c2ccsc2n1 [compound 2238990] | 79.6 % of Negative Control
O=S(=O)(Nc1cccc2ccccc12)c1ccc(Cl)cc1 [compound 310131] | 67.0 % of Negative Control
O=C(C1CCC1)N1CCCCC(c2ccc(Cl)cc2)C1 (stereo not drawn) [compound 76150259] | 108.6 % of Negative Control
Cc1nc(-c2ccc(F)cc2)sc1CCNC(=O)c1ccc(Br)o1 [compound 7503016] | 97.2 % of Negative Control
Cc1ccc(N2C(=O)C=CC2=O)c([N+](=O)[O-])c1 [compound 2834581] | 4.3 % of Negative Control

----------
- Test system: Cryptococcus spores
- PROTOCOL_NOTES: Quantitative germination assay (QGA), automated microscopy of spore germination
- Format: cell-based, Cryptococcus neoformans serotype D (deneoformans)
# cutoff 40 µM applies to phenotypic concentration (concentration showing the germination phenotype in QGA); >= gives met, < gives not met

COMPOUND | QUALITATIVE_LABEL
CCCCCC[C@H]1C(=O)O[C@H](C)[C@H](NC(=O)c2cccc(NC=O)c2O)C(=O)O[C@@H](C)[C@@H]1OC(=O)CC(C)C [antimycin A, reference compound] | not met
Cc1ccccc1OCCn1cnc2ccccc21 [PubChem CID 749608] | not met
Clc1ccc(OCCSCc2nc3ccccc3[nH]2)cc1 [PubChem CID 1589789] | not met
CCc1ccc2nc(N)sc2c1 [PubChem CID 773093] | not met
COc1cccc2cc(-c3csc(NN=C4CCN(C)CC4)n3)c(=O)oc12 [PubChem CID 4913014] | not met
O=C(NC1CCCC1)c1csc(Nc2ccccc2)n1 [PubChem CID 30860168] | not met
COc1ccc(/C=C/c2nc3ccccc3[nH]2)cc1 [PubChem CID 5769808] | not met
Nc1nc(COc2ccc3ccccc3c2)cs1 [PubChem CID 973573] | not met
Cc1ccc(-c2nnc(Cn3cnc4ccccc43)o2)cc1 [PubChem CID 16456942] | not met
CCn1c(CSc2ccccc2)nc2ccccc21 [PubChem CID 2992099] | met
C/C=C/c1ccc(OCCn2cnc3ccccc32)c(OC)c1 [PubChem CID 5769972] | not met
O=C(CSCc1ccccc1)N1CCC(c2ccsc2)CC1 [PubChem CID 71786985] | met
CN(C)CCN(C(=O)c1c[nH]c2ccccc12)c1nc2ccc(OC(F)(F)F)cc2s1.Cl [PubChem CID 71782913] | not met
c1ccc(OCCCCSc2nc3ccccc3[nH]2)cc1 [PubChem CID 1653635] | met
Cc1ccc(OCCn2c(C)nc3ccccc32)cc1 [PubChem CID 790960] | met
Cc1cc(C(=O)Nc2ccccc2)c(C)o1 [furcarbanil, reference compound] | met
CC(C)(C)c1ccc(-c2csc(N)n2)cc1 [PubChem CID 673711] | not met
CCc1ccccc1NC(=O)c1cc(C)oc1C [B1] | met
CCCOc1ccc(CSc2nc3ccccc3[nH]2)cc1 [PubChem CID 1653621] | met
O=C(CCSc1ccccc1)N1CCC(c2cccs2)CC1 [PubChem CID 71786877] | met
O=C(CC(=O)C(F)(F)F)c1cccs1 [TTFA, thenoyltrifluoroacetone, reference compound] | met
O=C(CSCc1ccccc1)N1CCC(c2cccs2)CC1 [PubChem CID 71786876] | met
O=C(Nc1nc2c(Br)cccc2s1)C1CC1 [PubChem CID 7202929] | not met
C=C(C)[C@H]1Cc2c(ccc3c2O[C@@H]2COc4cc(OC)c(OC)cc4[C@@H]2C3=O)O1 [rotenone, reference compound] | not met
Nc1nc(-c2ccc(Oc3ccccc3)cc2)cs1 [PubChem CID 780598] | not met
Cc1ccccc1OCCSCc1nc2ccccc2[nH]1 [PubChem CID 1589778] | met
CCCCSc1nc2ccc(C)cc2[nH]1 [PubChem CID 2129690] | met

----------
- Tested on: normal human dermal fibroblasts (NHDF) cells
- PROTOCOL_NOTES: Fibroblast cytotoxicity (CellTiter-Glo)
- Format: cell-based
- STATED_CONDITIONS: 10 µM
Measured Cytotoxicity: Relative Cell Viability (% of Negative Control) values are reported for all entries that follow.
MEASURED_METRIC: Cytotoxicity: Relative Cell Viability (% of Negative Control)

COMPOUND | VALUE_MEASURED
CCCOc1ccc(CSc2nc3ccccc3[nH]2)cc1 [compound 1653621] | 75.1 % of Negative Control
O=S(=O)(Nc1nc2c(Cl)cccc2s1)c1ccc(Cl)s1 [compound 16934160] | 75.3 % of Negative Control
Cc1cccc(NC(=O)CC2SC(=O)N(c3ccc(F)cc3)C2=O)c1 (stereo not shown) [compound 16876071] | 86.9 % of Negative Control
CCCCNC(=O)COc1c(C)cc(Br)cc1C [compound 1570496] | 84.5 % of Negative Control
CCOC(=O)N1CCN(C(c2ccccn2)c2c(-c3ccccc3)n(O)c3ccccc23)CC1 (stereo not shown) [compound 4081132] | 84.9 % of Negative Control
Cc1nc(NC2CCCCC2)c2ccsc2n1 [compound 2239015] | 75.4 % of Negative Control
O=C(c1cc2ccccc2s1)N1CCC(c2ccsc2)CC1 [compound 91624614] | 96.6 % of Negative Control
CCCCCCCNS(=O)(=O)c1ccc(OCC)cc1 [compound 4102712] | 43.9 % of Negative Control
Cc1cccc2nc(CSC(=S)NCc3cccnc3)cn12 [compound 957599] | 10.0 % of Negative Control
N#CC(C#N)=NNc1cccc(Br)c1 [compound 4199189] | 31.1 % of Negative Control
